- MEASUREMENT TARGET: Recombinant human Cbl-b (aa 36-427) (Homo sapiens (Human))
- Sequence (Q13191 36-427): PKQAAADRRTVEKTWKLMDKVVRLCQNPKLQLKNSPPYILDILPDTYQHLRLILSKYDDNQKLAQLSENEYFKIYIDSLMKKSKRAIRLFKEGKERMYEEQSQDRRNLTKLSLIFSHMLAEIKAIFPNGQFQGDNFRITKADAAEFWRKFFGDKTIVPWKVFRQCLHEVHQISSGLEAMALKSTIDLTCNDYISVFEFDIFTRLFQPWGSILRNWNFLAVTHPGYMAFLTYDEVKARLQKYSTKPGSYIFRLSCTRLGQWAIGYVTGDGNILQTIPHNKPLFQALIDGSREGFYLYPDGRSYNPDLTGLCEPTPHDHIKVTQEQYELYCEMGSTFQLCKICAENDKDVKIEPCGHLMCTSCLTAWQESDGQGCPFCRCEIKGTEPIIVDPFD
- ASSAY INFO: Cbl-b Biochemical Assay (TR-FRET)
- APPLIED CONDITIONS: read-out: TR-FRET hCbl-b IC50
Each item that follows carries a reported IC50.
RESULT TYPE: IC50

[
  {
    "MOLECULE": "COc1cc(COCC2(O)CCC2)cc2c1CN(c1cc(-c3ccc(F)cc3-c3nncn3C)cc(C3CC3)n1)C2=O",
    "MEASUREMENT TARGET": "Recombinant human Cbl-b (aa 36-427) (Homo sapiens (Human))",
    "RESULT TYPE": "IC50",
    "EXPERIMENTAL VALUE": "≤ 200 nM"
  },
  {
    "MOLECULE": "Cn1cnnc1-c1cc(C#N)ccc1-c1cc(C2CC2)nc(N2Cc3ccc(CNC4CCOC4)cc3C2=O)c1 (stereo in doubt)",
    "MEASUREMENT TARGET": "Recombinant human Cbl-b (aa 36-427) (Homo sapiens (Human))",
    "RESULT TYPE": "IC50",
    "EXPERIMENTAL VALUE": "≤ 200 nM"
  },
  {
    "MOLECULE": "C[C@H](NCC1CC1)c1ccc2c(c1)C(=O)N(c1cc(-c3ccc(C#N)cc3-c3nncn3C)cc(C3CC3)n1)C2",
    "MEASUREMENT TARGET": "Recombinant human Cbl-b (aa 36-427) (Homo sapiens (Human))",
    "RESULT TYPE": "IC50",
    "EXPERIMENTAL VALUE": "≤ 200 nM"
  },
  {
    "MOLECULE": "COC[C@H]1CCCN1Cc1cc(F)c2c(c1)C(=O)N(c1cc(-c3ccc(C#N)cc3-c3nncn3C)cc(C3CC3)n1)C2",
    "MEASUREMENT TARGET": "Recombinant human Cbl-b (aa 36-427) (Homo sapiens (Human))",
    "RESULT TYPE": "IC50",
    "EXPERIMENTAL VALUE": "≤ 200 nM"
  }
]

###

- MEASUREMENT TARGET: Recombinant human c-Cbl (aa 47-435) (Homo sapiens (Human))
- Sequence (P22681 47-435): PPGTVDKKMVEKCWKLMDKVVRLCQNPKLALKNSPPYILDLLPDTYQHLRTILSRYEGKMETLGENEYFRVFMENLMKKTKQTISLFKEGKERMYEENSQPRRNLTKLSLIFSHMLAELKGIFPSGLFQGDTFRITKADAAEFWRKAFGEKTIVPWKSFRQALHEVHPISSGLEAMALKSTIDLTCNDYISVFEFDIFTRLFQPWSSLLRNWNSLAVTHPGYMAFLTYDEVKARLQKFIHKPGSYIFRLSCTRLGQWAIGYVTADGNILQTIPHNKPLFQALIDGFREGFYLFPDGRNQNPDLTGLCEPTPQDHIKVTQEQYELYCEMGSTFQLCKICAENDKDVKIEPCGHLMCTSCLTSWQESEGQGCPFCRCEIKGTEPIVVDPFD
- ASSAY INFO: c-Cbl Biochemical Assay (TR-FRET)
pIC50: −log10 of the molar value.
Entries and their pIC50 values follow.
RESULT TYPE: pIC50

[
  {
    "SUBSTANCE SMILES": "Cn1cnnc1-c1cc(C#N)ccc1-c1cc(C2CC2)nc(N2Cc3ccc(CNC4COC4)cc3C2=O)c1",
    "RESULT TYPE": "pIC50",
    "EXPERIMENTAL VALUE": "≥ 6.70"
  },
  {
    "SUBSTANCE SMILES": "CNCc1ccc2c(c1)C(=O)N(c1cc(-c3ccc(C#N)cc3-c3nncn3C)cc(C3CC3)n1)C2",
    "RESULT TYPE": "pIC50",
    "EXPERIMENTAL VALUE": "≥ 6.70"
  },
  {
    "SUBSTANCE SMILES": "Cn1cnnc1-c1cc(C#N)ccc1-c1cc(N2Cc3c(F)cc(CO)cc3C2=O)nc(C(F)(F)F)c1",
    "RESULT TYPE": "pIC50",
    "EXPERIMENTAL VALUE": "6.00 to 6.70"
  },
  {
    "SUBSTANCE SMILES": "CNCCOCc1ccc2c(c1)C(=O)N(c1cc(-c3ccc(C#N)cc3-c3nncn3C)cc(C3CC3)n1)C2",
    "RESULT TYPE": "pIC50",
    "EXPERIMENTAL VALUE": "≥ 6.70"
  }
]
